Test: qHTS assay to identify small molecule antagonists of the vitamin D receptor (VDR) signaling pathway - cell viability counter screen (AID 743225); note: nearly all actives have a fitted effect of over 50% in size
Settings: VDR-bla HEK293T viability, CellTiter-Glo luminescence, 16 h; series mostly up to 61 µM
Records with an inconclusive call do not appear. Calls of active or inactive are those of the source. Calls come from the whole dose curve; as a rule, active = well fitted cell-killing curve with a large enough effect in the repeat runs; inconclusive = weak or mixed curves, or effect the other way; inactive = no such curve, though single readings can be large or run the other way.
Hello, when you answer, please use one of the following outcomes: 1 (yes) (active), 0 (no) (inactive)

Here are 5 compounds together with their reported answers.
1) Oc1ccc(C2(c3ccc(O)cc3)CC3CC2C2CCCC32)cc1 (stereo unspecified): 1 (yes)
2) Cc1ccc2oc(CN(Cc3ccccc3)C(=O)Nc3c(F)cc(F)cc3F)c(-c3ccc(Cl)cc3)c2c1: 0 (no)
3) Clc1ccc2nsnc2c1NC1=NCCN1: 0 (no)
4) CCCCCCCCCCCC[N+](C)(C)CCCCCCCCCCCC: 1 (yes)
5) O=C(Oc1ccccc1)c1ccccc1C(=O)Oc1ccccc1: 0 (no)

Now take the following compound into account.
Identify the outcome logged in this assay for the compound shown: CCN(CC)CCCC(C)Nc1c2ccc(Cl)cc2nc2ccc(OC)cc12 (stereo unspecified)
1 (yes)

This collection of values is drawn from PubChem BioAssay (Tox21).
